Molecular target: Muscarinic acetylcholine receptor M1 (Homo sapiens)
Assay: Ratio of binding affinities at human cloned Muscarinic acetylcholine receptor M1 and human cloned Muscarinic acetylcholine receptor M2.
Label false if Ratio falls below 40; label true in every other case.

Ask: Would you say "CCNC(=O)N1CCC(N2CCN([C@@H](C)c3ccc(S(=O)(=O)c4ccc5c(c4)OCO5)cc3)[C@H](C)C2)CC1" shows Ratio at minimum 40?
Reply: false

Ask: Would you say "C[C@@H]1CN(C2CCN(C(=O)c3ccccc3)CC2)CCN1[C@@H](C)c1ccc(S(=O)(=O)c2ccc3c(c2)OCO3)cc1" shows Ratio at minimum 40?
Reply: false

Ask: Would you say "C[C@@H]1CN(C2CCNCC2)CCN1[C@@H](C)c1ccc(S(=O)(=O)c2ccc3c(c2)OCO3)cc1" shows Ratio at minimum 40?
Reply: false

Ask: Would you say "COc1ccc(S(=O)(=O)c2ccc([C@H](C)N3CCN(C4CCCCC4)C[C@H]3C)cc2)cc1" shows Ratio at minimum 40?
Reply: true

Ask: Would you say "CCCCS(=O)(=O)N1CCC(N2CCN([C@@H](C)c3ccc(S(=O)(=O)c4ccc5c(c4)OCO5)cc3)[C@H](C)C2)CC1" shows Ratio at minimum 40?
Reply: true

Ask: Would you say "COc1ccc(S(=O)(=O)c2ccc(CN3CCN(C4CCCCC4)C[C@H]3C)cc2)cc1" shows Ratio at minimum 40?
Reply: false

Ask: Would you say "COc1ccc(S(=O)(=O)c2ccc([C@@H](C)N3CCN(C4CCCCC4)C[C@H]3C)cc2)cc1" shows Ratio at minimum 40?
Reply: false

Ask: Would you say "CCCCC(=O)N1CCC(N2CCN([C@@H](C)c3ccc(S(=O)(=O)c4ccc5c(c4)OCO5)cc3)[C@H](C)C2)CC1" shows Ratio at minimum 40?
Reply: false

Ask: Would you say "CCCS(=O)(=O)N1CCC(N2CCN([C@@H](C)c3ccc(S(=O)(=O)c4ccc5c(c4)OCO5)cc3)[C@H](C)C2)CC1" shows Ratio at minimum 40?
Reply: true
